# measured_target: T1, biotinylated CRH (human and mouse, not fully specified; biotinylated, position not stated)
# T1 construct: also called Biotin-CRH; biotin-labeled CRH
# T1 peptide: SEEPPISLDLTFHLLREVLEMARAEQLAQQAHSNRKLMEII
# experiment_notes: Octet BLI, biotinylated CRH on SA sensor
# Description: Octet® Red 96e was used for affinity measurement. Octet® running buffer was prepared by diluting kinetics buffer 10× (Fortebio, Cat #18-1105) in PBS according to the manufacturer's instructions. Two columns of SA sensors (Fortebio, Cat #18-5019) were hydrated in running buffer for 10 mins, one for ligand capturing and the other for reference. Antibodies were 2-fold diluted and added into a 96-well plate. […]
pKd: −log10 of the molar value.
The following binders are listed with their measured pKd values.
reported_property: pKd

binder	modifier	recorded_result
PR006148 (antibody, human IgG1, kappa, V domains shown, PTM-removal variant of PR004290) VH: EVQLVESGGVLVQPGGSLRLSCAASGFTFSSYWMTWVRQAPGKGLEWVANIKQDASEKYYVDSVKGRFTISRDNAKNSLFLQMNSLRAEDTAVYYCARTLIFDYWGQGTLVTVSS VL: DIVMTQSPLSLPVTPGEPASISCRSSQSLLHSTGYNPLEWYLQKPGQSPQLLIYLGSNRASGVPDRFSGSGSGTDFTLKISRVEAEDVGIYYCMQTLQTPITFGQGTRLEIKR	=	9.97
PR302309 (antibody, human IgG1, kappa, V domains shown, Series 7; mouse variable domains with human IgG1 wildtype Fc) VH: QIQLVQSGPELKKPGETVKISCKASGYTFTNYGMNWVKQAPGKVLKWMGWINTYTGEPIYTDDFKGRFAFSLETSASTAYLQINNLKNEDTATYFCSRSTMITTGGVFAYWGQGTLVTVSA VL: DVLMAQTPLSLPVSLGDQASISCRSSQTIVHSDGNTYLEWYLQKPGQSPKLLIYKVSNRFSGVPDRFSGSGSGTDFTLKISRVEAEDLGVYYCFQGSHVPWTFGGGTKLEIKR	=	10.82
PR006143 (antibody, human IgG1, kappa, V domains shown, PTM-removal variant of PR004290) VH: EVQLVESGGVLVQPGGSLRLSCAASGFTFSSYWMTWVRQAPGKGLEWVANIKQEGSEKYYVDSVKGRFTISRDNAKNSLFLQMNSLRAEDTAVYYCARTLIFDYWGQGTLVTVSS VL: DIVMTQSPLSLPVTPGEPASISCRSSQSLLHSTGYHSLEWYLQKPGQSPQLLIYLGSNRASGVPDRFSGSGSGTDFTLKISRVEAEDVGIYYCMQTLQTPITFGQGTRLEIKR	=	10.21
PR302334-11 (antibody, human IgG1, kappa, V domains shown, Humanized variant of PR302334) VH: EVQLVESGGGLVQPGGSLRLSCAASGFTFSTYAMSWVRQAPGKGLEWVASIRSGGTTYYPDSVKGRFTISRDNSKNTLYLQMNSLRAEDTAVYYCTRGIDWGQGTTVTVSS VL: DIQMTQSSLSASVSLGDRVTITCKASQSVNNDVAWYQQKPGKAPRLLIYYASNRYTGVPSRFSGSGSGTDFTFTISSLQPEDIATYYCQQDYSSWTFGGGTKVEIKR	>	12.00
PR302050 (antibody, human IgG1, kappa, V domains shown, Humanized variant of PR301777) VH: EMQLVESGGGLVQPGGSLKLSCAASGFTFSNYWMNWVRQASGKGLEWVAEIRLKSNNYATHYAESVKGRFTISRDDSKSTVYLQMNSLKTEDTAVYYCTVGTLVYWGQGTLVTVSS VL: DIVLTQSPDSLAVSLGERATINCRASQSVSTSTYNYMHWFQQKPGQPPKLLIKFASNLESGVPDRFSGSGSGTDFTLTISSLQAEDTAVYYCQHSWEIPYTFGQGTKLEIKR	>	12.00
PR302341-34 (antibody, human IgG1, kappa, V domains shown, Humanized, PTM-removed variant of PR302341) VH: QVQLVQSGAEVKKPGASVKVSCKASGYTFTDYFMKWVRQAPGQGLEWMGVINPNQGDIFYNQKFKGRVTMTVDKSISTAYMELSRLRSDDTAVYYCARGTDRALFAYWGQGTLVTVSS VL: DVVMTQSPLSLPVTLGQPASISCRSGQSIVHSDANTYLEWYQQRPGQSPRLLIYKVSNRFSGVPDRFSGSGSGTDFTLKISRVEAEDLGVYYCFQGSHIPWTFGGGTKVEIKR	>	12.00
PR006147 (antibody, human IgG1, kappa, V domains shown, PTM-removal variant of PR004290) VH: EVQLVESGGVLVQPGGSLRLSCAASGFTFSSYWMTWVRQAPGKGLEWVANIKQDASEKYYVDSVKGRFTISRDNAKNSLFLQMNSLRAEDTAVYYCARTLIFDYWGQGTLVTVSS VL: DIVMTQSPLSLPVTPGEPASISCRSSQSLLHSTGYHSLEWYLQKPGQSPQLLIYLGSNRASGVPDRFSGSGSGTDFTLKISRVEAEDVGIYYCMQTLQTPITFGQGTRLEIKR	=	9.85
PR302341-48 (antibody, human IgG1, kappa, V domains shown, Humanized, PTM-removed variant of PR302341) VH: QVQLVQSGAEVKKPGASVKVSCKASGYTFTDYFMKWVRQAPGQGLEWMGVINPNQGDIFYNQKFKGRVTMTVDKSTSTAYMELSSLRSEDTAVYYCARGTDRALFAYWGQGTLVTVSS VL: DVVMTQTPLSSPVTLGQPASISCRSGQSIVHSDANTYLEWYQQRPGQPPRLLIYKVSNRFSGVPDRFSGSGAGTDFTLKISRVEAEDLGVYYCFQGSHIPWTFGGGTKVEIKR	>	12.00
PR302309-8 (antibody, human IgG1, kappa, V domains shown, Humanized variant of PR302309) VH: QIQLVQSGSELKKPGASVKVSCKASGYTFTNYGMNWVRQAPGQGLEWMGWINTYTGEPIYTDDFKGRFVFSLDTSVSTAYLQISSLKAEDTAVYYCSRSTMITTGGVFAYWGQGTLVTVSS VL: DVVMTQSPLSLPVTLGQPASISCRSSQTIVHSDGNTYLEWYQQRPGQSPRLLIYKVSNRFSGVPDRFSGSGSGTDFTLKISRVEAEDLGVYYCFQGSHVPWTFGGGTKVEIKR	=	9.29
PR302334 (antibody, human IgG1, kappa, V domains shown, Series 9; mouse variable domains with human IgG1 wildtype Fc) VH: EVKLVESGGGLVKPGGSLKLSCAASGFTFSTYAMSWVRQTPEKRLEWVASIRSGGTTYYPDSVKGRFTISRDNARNILYLQMSSLRSEDTAIYYCTRGIDWGQGTLVTVSA VL: NIVMTQTPKFLLVSAGDRITITCKASQSVNNDVAWYQQKPGQSPKLLIYYASNRYTGVPDRFTGSGYGTDFTFTISTVQAEDLAVYFCQQDYSSWTFGGGTNLEIKR	>	12.00
